System: DLD-1
test_name: Cytotoxicity against human DLD1 cells after 96 hrs by SRB assay
Type: functional, cell-based
recorded_conditions: Homo sapiens, DLD-1, 96 h
Kindly state log10(IC50) for each of the entries shown.
Record value = log10 of IC50 given in µM.

smiles_notation	study_system	value
CC(C)OC(=O)[C@@]1(C)CC[C@]2(C)CC[C@]3(C)C(=CC(=O)[C@@H]4[C@@]5(C)CC[C@H](O)C(C)(C)[C@@H]5CC[C@]43C)[C@@H]2C1	DLD-1	1.44
CC1(C)[C@@H](O)CC[C@]2(C)[C@H]3C(=O)C=C4[C@@H]5C[C@@](C)(C(=O)OCc6ccccc6)CC[C@]5(C)CC[C@@]4(C)[C@]3(C)CC[C@@H]12	DLD-1	1.36
CC(C)OC(=O)[C@@]1(C)CC[C@]2(C)CC[C@]3(C)C(=CC(=O)[C@@H]4[C@@]5(C)CC[C@H](OC(=O)CCN)C(C)(C)[C@@H]5CC[C@]43C)[C@@H]2C1	DLD-1	0.55

Batch request: log10(IC50) per item, same order as input.
1. COC(=O)[C@@]1(C)CC[C@]2(C)CC[C@]3(C)C(=CC(=O)[C@@H]4[C@@]5(C)CC[C@H](OC(=O)CCN)C(C)(C)[C@@H]5CC[C@]43C)[C@@H]2C1
2. CC1(C)[C@@H](OC(=O)CCN)CC[C@]2(C)[C@H]3C(=O)C=C4[C@@H]5C[C@@](C)(C(=O)OCc6ccccc6)CC[C@]5(C)CC[C@@]4(C)[C@]3(C)CC[C@@H]12

Result string:
1: 0.40; 2: 0.66

----------
So I've got a bunch of compounds here, and I need their IC50 values.
System: HCT-8
test_name: Cytotoxicity against human HCT8 cells after 96 hrs by SRB assay
Format: functional, cell-based
recorded_conditions: HCT-8, 96 h
Give bare numbers, in µM.

Previously resolved entries follow.
compound	study_system	value
CC(C)OC(=O)[C@@]1(C)CC[C@]2(C)CC[C@]3(C)C(=CC(=O)[C@@H]4[C@@]5(C)CC[C@H](OC(=O)[C@H](C)N)C(C)(C)[C@@H]5CC[C@]43C)[C@@H]2C1	HCT-8	5.13
COC(=O)[C@@]1(C)CC[C@]2(C)CC[C@]3(C)C(=CC(=O)[C@@H]4[C@@]5(C)CC[C@H](OC(=O)[C@H](C)N)C(C)(C)[C@@H]5CC[C@]43C)[C@@H]2C1	HCT-8	2.8

Measured IC50 of CC1(C)[C@@H](O)CC[C@]2(C)[C@H]3C(=O)C=C4[C@@H]5C[C@@](C)(C(=O)O)CC[C@]5(C)CC[C@@]4(C)[C@]3(C)CC[C@@H]12 [ENOXOLONE] : 78.9

----------
System: HCT-8
test_name: Cytotoxicity against human HCT8 cells after 96 hrs by SRB assay
Type: functional, cell-based
recorded_conditions: HCT-8, 96 h
experimental_endpoint: pIC50
Answers are plain numbers, as −log10 of the molar value.

Some solved entries appear below for comparison.
smiles_notation	pIC50
COC(=O)[C@@]1(C)CC[C@]2(C)CC[C@]3(C)C(=CC(=O)[C@@H]4[C@@]5(C)CC[C@H](OC(=O)[C@@H](C)N)C(C)(C)[C@@H]5CC[C@]43C)[C@@H]2C1	5.65
CC(C)OC(=O)[C@@]1(C)CC[C@]2(C)CC[C@]3(C)C(=CC(=O)[C@@H]4[C@@]5(C)CC[C@H](OC(=O)[C@@H](C)N)C(C)(C)[C@@H]5CC[C@]43C)[C@@H]2C1	5.48
CC1(C)[C@@H](O)CC[C@]2(C)[C@H]3C(=O)C=C4[C@@H]5C[C@@](C)(C(=O)OCc6ccccc6)CC[C@]5(C)CC[C@@]4(C)[C@]3(C)CC[C@@H]12	4.60
CCOC(=O)[C@@]1(C)CC[C@]2(C)CC[C@]3(C)C(=CC(=O)[C@@H]4[C@@]5(C)CC[C@H](OC(=O)[C@@H](C)N)C(C)(C)[C@@H]5CC[C@]43C)[C@@H]2C1	5.62

The reported value for COC(=O)[C@@]1(C)CC[C@]2(C)CC[C@]3(C)C(=CC(=O)[C@@H]4[C@@]5(C)CC[C@H](O)C(C)(C)[C@@H]5CC[C@]43C)[C@@H]2C1 in terms of pIC50 is 4.61
